# Read-out: Tumor necrosis factor receptor 1 (TNFRSF1A), TNFRSF1A (gene 7132)
# METHOD_DESCRIPTION: LTEA_HepaRG_TNFRSF1A: Life Technologies and Expression Analysis (LTEA) Assay for Tumor necrosis factor receptor 1 (TNFRSF1A) using HepaRG (AID 2283535)
# TEST_CONTEXT: mRNA level, 48 h; actives raise or lower the signal
Calls of active or inactive are those of the source. The calls were made as follows: active = hit-call score of the fitted dose curve at least 0.9, where 1 is the maximum; inactive = score below 0.9.
The reply should be one of these categories: Y for active, N for inactive

Answered cases to consult:
For this compound, state the assay outcome: C=CCOC(Cn1ccnc1)c1ccc(Cl)cc1Cl (stereo unspecified)
Y

For this compound, state the assay outcome: N#CSCSc1nc2ccccc2s1
N

For this compound, state the assay outcome: COC(=O)c1ccccc1C(=O)O
N

For this compound, state the assay outcome: O=C(c1ccc(O)cc1O)c1ccc(O)cc1O
N

Others:
For this compound, state the assay outcome: CC(=O)[C@H]1CC[C@H]2[C@@H]3CCC4=CC(=O)CC[C@]4(C)[C@H]3CC[C@]12C
Y

For this compound, state the assay outcome: c1ccc2[nH]c(-c3cscn3)nc2c1
N

For this compound, state the assay outcome: CCCCOC(=O)[C@@H](C)Oc1ccc(Oc2ccc(C(F)(F)F)cn2)cc1
N

For this compound, state the assay outcome: COC(=O)CSc1cc(N=c2sc(=O)n3n2CCCC3)c(F)cc1Cl
N

For this compound, state the assay outcome: COC(=O)c1ccc(I)cc1S(=O)(=O)NC(=O)Nc1nc(C)nc(OC)n1
N

For this compound, state the assay outcome: CC(=O)S[C@@H]1CC2=CC(=O)CC[C@]2(C)[C@H]2CC[C@@]3(C)[C@@H](CC[C@@]34CCC(=O)O4)[C@H]12
N

For this compound, state the assay outcome: CCNc1nc(N)nc(Cl)n1
N

For this compound, state the assay outcome: CCCCC(CC)CN1C(=O)C2C3C=CC(C3)C2C1=O (stereo unspecified)
N

For this compound, state the assay outcome: CCCCC(CC)COC(=O)c1ccccc1C(=O)O (stereo unspecified)
N

For this compound, state the assay outcome: CCCOC(=O)NCCCN(C)C
N

====

# EXPERIMENTAL_SYSTEM: human Retinoic Acid Receptor beta (RARb), RARB (gene 5915)
# METHOD_DESCRIPTION: ATG_RARb_TRANS: Attagene TRANS-FACTORIAL HepG2 Assay for human Retinoic Acid Receptor beta (AID 2283004)
Inconclusive results are not listed. The source made the active and inactive calls. How the source made its calls: active means hit-call score of the fitted dose curve at least 0.9, where 1 is the maximum; inconclusive means response in the unintended direction; inactive means score below 0.9.
PROPERTY: outcome

Some solved cases for reference:
Query: outcome; subject: CC(C)(c1ccc(O)cc1)c1ccc(O)cc1
inactive

Query: outcome; subject: c1ccc2[nH]c(-c3cscn3)nc2c1
inactive

Query: outcome; subject: CCOC(=O)c1ccc(O)cc1
inactive

Query: outcome; subject: CCCCOC(=O)C(C)Oc1ccc(Oc2ccc(C(F)(F)F)cn2)cc1 (stereo not drawn)
inactive

Query: outcome; subject: CCNc1nc(N)nc(Cl)n1
inactive

Query: outcome; subject: CCC(C)OC(=O)N1CCCCC1CCO (stereo not drawn)
inactive

Would you mind listing outcome for each of the following compounds?
1. O=C(c1ccc(O)cc1O)c1ccc(O)cc1O
2. CCC(O)=C1C(=O)CC(C(=O)O)CC1=O (stereo not drawn)
3. CCCOC(=O)NCCCN(C)C
4. Cc1nn(C)c(Oc2ccccc2)c1C=NOCc1ccc(C(=O)OC(C)(C)C)cc1
5. OB(O)O
6. CCCN(CCC)c1c([N+](=O)[O-])cc(C(F)(F)F)c(N)c1[N+](=O)[O-]

1: inactive; 2: inactive; 3: inactive; 4: inactive; 5: inactive; 6: inactive

Query: outcome; subject: O=C(Nc1ccc([N+](=O)[O-])cc1Cl)c1cc(Cl)ccc1O
inactive
